Every entry's value here was drawn from patent US20200040059A1.

Quick reference: MFI at 11.1 nM of the listed items.
Target: T1, CD226 (human) (UniProt Q15762)
T1 sequence: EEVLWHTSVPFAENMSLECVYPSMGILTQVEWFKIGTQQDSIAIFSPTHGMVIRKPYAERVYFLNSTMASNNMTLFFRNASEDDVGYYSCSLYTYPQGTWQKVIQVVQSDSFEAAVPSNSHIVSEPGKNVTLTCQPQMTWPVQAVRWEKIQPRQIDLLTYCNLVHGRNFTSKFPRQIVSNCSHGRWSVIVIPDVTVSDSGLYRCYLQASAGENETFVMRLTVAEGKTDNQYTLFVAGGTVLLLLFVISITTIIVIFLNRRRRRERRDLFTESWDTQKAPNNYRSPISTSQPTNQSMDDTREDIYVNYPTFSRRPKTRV
Assay: flow cytometry, CD226-expressing cells
Answer in MFI, number only, no unit symbol.

[[record]]
binder = "CD155 variant IgV-Fc P18F, S65A, S67V, F91S, L104M, G111R (Fc fusion, not shown: a dimerising Fc or GST; small tags and cut ends) WPPPGTGDVVVQAPTQVFGFLGDSVTLPCYLQVPNMEVTHVSQLTWARHGESGSMAVFHQTQGPAYVESKRLEFVAARLGAELRNASLRMSGLRVEDEGNYTCMFVTFPQRSRSVDIWL"
result_type = "MFI at 11.1 nM"
reported = 901


Input CD155 variant IgV-Fc P18L, K70E, L79P, F91S, V95A, G111R (Fc fusion, not shown: a dimerising Fc or GST; small tags and cut ends) WPPPGTGDVVVQAPTQVLGFLGDSVTLPCYLQVPNMEVTHVSQLTWARHGESGSMAVFHQTQGPSYSESERLEFVAARPGAELRNASLRMSGLRAEDEGNYTCLFVTFPQRSRSVDIWL . Output MFI at 11.1 nM: 1120

Input CD155 variant IgV-Fc V9L, P18L, L79P, M90I, F91S, T102S, L104M, G111R (Fc fusion, not shown: a dimerising Fc or GST; small tags and cut ends) WPPPGTGDLVVQAPTQVLGFLGDSVTLPCYLQVPNMEVTHVSQLTWARHGESGSMAVFHQTQGPSYSESKRLEFVAARPGAELRNASLRISGLRVEDEGNYSCMFVTFPQRSRSVDIWL . Output MFI at 11.1 nM: 910

Input CD155 variant IgV-Fc V9I, V10I, P18S, F20S, T45A, L79P, F91S, L104M, F108Y, G111R, S112V (Fc fusion, not shown: a dimerising Fc or GST; small tags and cut ends) WPPPGTGDIIVQAPTQVSGSLGDSVTLPCYLQVPNMEVTHVSQLAWARHGESGSMAVFHQTQGPSYSESKRLEFVAARPGAELRNASLRMSGLRVEDEGNYTCMFVTYPQRVRSVDIWL . Output MFI at 11.1 nM: 973
